assay: alkaline duodenal secretion in anaesthetized rats; format: in vivo, male rats; details: maximum increase, 1 mg/kg intravenously, anaesthetized rats
Counter-ions that a name gives are not always drawn.
Increase in secretion values, listed per item
Quick reminder: number only, in micro-eq/cm/h, skip the unit.

{"columns": ["COMPOUND", "Increase in secretion, micro-eq/cm/h"],
 "data": [
  ["CCC(CC=Cc1ccccc1)(c1ccccc1)N(C)CC1CC1 (single isomer, unassigned) [Example 10, hydrochloride]", 7.5],
  ["CCC(CC=Cc1ccccc1)(c1ccccc1)N(C)CC1CCCCC1 (stereo not shown)", 6.0],
  ["CCC(CC=Cc1ccccc1)(c1ccccc1)N(C)CC1CCC1 (stereo not shown)", 7.0]
]}

Which Increase in secretion is listed for CCC(CC=Cc1ccccc1)(c1ccccc1)N(C)CC1CC1 (stereo not shown) [Example 9] ? 10.0

====

target: kappa receptors (Cavia porcellus, UniProt P41144); construct: from tissue; assay: in vitro affinity for kappa receptors; format: binding; conditions: Table 3; read-out: kappa rec. IC50
Sequence (P41144 whole entry): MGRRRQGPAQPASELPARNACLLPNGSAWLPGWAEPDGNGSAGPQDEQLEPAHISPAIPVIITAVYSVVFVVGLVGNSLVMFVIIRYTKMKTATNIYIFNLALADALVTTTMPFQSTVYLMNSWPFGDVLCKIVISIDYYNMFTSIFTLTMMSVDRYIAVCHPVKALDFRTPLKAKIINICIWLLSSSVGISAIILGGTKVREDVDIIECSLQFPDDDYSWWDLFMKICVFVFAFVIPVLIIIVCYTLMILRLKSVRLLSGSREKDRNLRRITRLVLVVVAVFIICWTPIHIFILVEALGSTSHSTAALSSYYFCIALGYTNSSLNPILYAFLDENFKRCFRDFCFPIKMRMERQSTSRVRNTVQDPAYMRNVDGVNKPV
Where a name gives a salt, the structure may show the parent alone.
Entry class follows IC50: LOW (below 6 µM), MID (6 µM to below 9 µM), HIGH (9 µM or more)

{"columns": ["COMPOUND", "TARGET DESC", "CLASS LABEL"],
 "data": [
  ["CCC(CC=Cc1ccccc1)(c1ccccc1)N(C)CCC1CC1 (stereo not shown) [Example 8]", "kappa receptors (Cavia porcellus, UniProt P41144)", "LOW"],
  ["CCC(CC=Cc1ccccc1)(c1ccccc1)N(C)CC1CCCCC1 (stereo not shown) [Example 7]", "kappa receptors (Cavia porcellus, UniProt P41144)", "HIGH"]
]}

Input CCC(CC=Cc1ccccc1)(c1ccccc1)N(C)CC1CCC1 (stereo not shown) [Example 12] ; output its category MID

Item: CCC(CC=Cc1ccccc1)(c1ccccc1)N(C)CC1CC1 (single isomer, unassigned) [Example 10, hydrochloride] HIGH

Item: CCC(CC=Cc1ccccc1)(c1cccs1)N(C)CC1CC1 (stereo not shown) [Example 21] LOW

Item: CCC(CC=Cc1ccccc1)(c1ccccc1)N(C)CC1CC1 (stereo not shown) [Example 9] MID

Item: CN(CC1CC1)C(C)(CC=Cc1ccccc1)c1ccccc1 (stereo not shown) [Example 13] MID

Item: CC(C)C(CC=Cc1ccccc1)(c1ccccc1)N(C)CC1CC1 (stereo not shown) [Example 14] HIGH

Item: CCC(CC=Cc1ccccc1)(c1ccccc1)N(C)CC1CC1 (single isomer, unassigned) [Example 11, hydrochloride] LOW

====

molecular target: kappa receptors (Cavia porcellus); construct: from tissue; assay: in vitro affinity for kappa receptors; assay type: binding; details: kappa rec. IC50, Table 3
MEASURED METRIC: IC50 (µM)
Quick reminder: number only, in µM, skip the unit.

Give kappa receptors (Cavia porcellus) IC50 for Cc1ccccc1NC(=N)Nc1ccccc1C [DTG, ditolylguanidine, reference compound] 6.49

====

molecular target: delta receptors (Cavia porcellus, UniProt A0A286XTF2); test: in vitro affinity for delta receptors; conditions: Table 3; read-out: delta rec. IC50
Sequence (A0A286XTF2 1-366): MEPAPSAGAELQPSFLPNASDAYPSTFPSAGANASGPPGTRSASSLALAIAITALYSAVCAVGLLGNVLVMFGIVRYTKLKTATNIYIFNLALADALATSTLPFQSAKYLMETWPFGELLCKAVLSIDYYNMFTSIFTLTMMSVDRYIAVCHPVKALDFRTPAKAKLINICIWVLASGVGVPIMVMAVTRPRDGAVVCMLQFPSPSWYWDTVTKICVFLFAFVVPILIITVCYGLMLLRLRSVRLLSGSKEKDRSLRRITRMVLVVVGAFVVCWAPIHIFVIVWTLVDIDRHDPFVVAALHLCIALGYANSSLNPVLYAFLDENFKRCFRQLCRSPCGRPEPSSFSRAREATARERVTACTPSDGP
Counter-ions that a name gives are not always drawn.
MEASURED METRIC: pIC50
Answer as the number alone; pIC50 is minus log10 of concentration in mol/L.

Worked examples follow.
{"columns": ["MOLECULE", "pIC50"],
 "data": [
  ["CCC(CC=Cc1ccccc1)(c1ccccc1)N(C)CC1CCCCC1 (centres unmarked) [Example 7]", 4.29],
  ["CCC(CC=Cc1ccccc1)(c1cccs1)N(C)CC1CC1 (centres unmarked) [Example 21]", 5.13],
  ["CCC(CC=Cc1ccccc1)(c1ccccc1)N(C)CCC1CC1 (centres unmarked) [Example 8]", 5.12],
  ["Cc1ccccc1NC(=N)Nc1ccccc1C [DTG, ditolylguanidine, reference compound]", 4.48],
  ["CCC(CC=Cc1ccccc1)(c1ccccc1)N(C)CC1CCC1 (centres unmarked) [Example 12]", 4.07],
  ["CN(CC1CC1)C(C)(CC=Cc1ccccc1)c1ccccc1 (centres unmarked) [Example 13]", 5.03],
  ["CCC(C[C@@H]1C[C@H]1c1ccccc1)(c1cccs1)N(C)CC1CC1 (relative stereo) [Example 24]", 4.24],
  ["CCC(CC=Cc1ccccc1)(c1ccccc1)N(C)CC1CC1 (single isomer, unassigned) [Example 10, hydrochloride]", 4.17],
  ["CCC(CC=Cc1ccccc1)(c1ccccc1)N(C)CC1CC1 (single isomer, unassigned) [Example 11, hydrochloride]", 4.38]
]}

Give delta receptors (Cavia porcellus, UniProt A0A286XTF2) pIC50 for CCC(CC=Cc1ccccc1)(c1ccccc1)N(C)CC1CC1 (centres unmarked) [Example 9] 4.08
